tested target: T1, human BKB2R-derived epitope peptide (SEQ ID NO:73), PEG-biotin (human, also: PEG-biotin, site not given here)
T1 construct: also called immunogenic human BKB2R peptide fragment
T1 peptide: KEYSDEGHNVTAC
experiment notes: BLI (Octet), peptide-PEG-biotin on streptavidin sensor, antibody 500 nM
Method: For the Octet study, antibodies were analyzed by kinetic titration of the antibodies. […] Sensor Prep: Streptavidin biosensors (FortéBio Inc, Menlo Park, Calif.) were coated by incubation in a solution containing a peptide ([…]-PEG-biotin) (Biosyn, Lewisville, Tex.) at 50 μg/ml (300 seconds/1000 rpm shaking). […] Octet system software calculated kinetic constants for on rate/off rate/affinity. […]
Where no end group is shown, it is not given here.
Entries and their pKd
// pKd is dimensionless: -log10 of concentration (M)

Here's what some known entries look like.
humanized anti-BKB2R antibody H38/L37 (antibody, human IgG2, kappa, V domains shown) VH: EVQLLESGGGLVQPGGSLKLSCAVSGFTFSDYWMSWVRQAPGKGLEWVSEIRLKSDNYATHYADSVKGRFTISRDDSKNTLYLQMNSLRAEDTAVYYCTRDYYAMEYWGQGTLVTVSS VL: DIVMTQTPLSLSVTPGQPASISCKSSQTIVHSNGKTYLYWYLQKPGQSPQLLIYKVSSRFSGVPDRFSGSGSGTDFTLKISRVEAEDVGVYYCFQASHVPYTFGQGTKLEIKR	5.51
humanized anti-BKB2R antibody H39/L38 (antibody, human IgG2, kappa, V domains shown) VH: EVKLVESGGGLVQPGGSLRLSCAVSGFTFSDYWMDWVRQAPGKGLEWVAEIRLKSDNYATHYAASVKGRFTISRDDSKSRLYLQMNSLKTEDTAVYYCTRDYYAMEYWGQGTTVTVSS VL: DIVMTQTPLSLPVTSGEPASISCRSSQTIVHSNGKTYLDWYLQKPGQSPQLLIYKVSNRASGVPDRFSGSGSGTDFTLKISRVEAEDVGVYYCFQASHVPYTFGGGTKVEIKR	6.12
humanized anti-BKB2R antibody H37/L37 (antibody, human IgG2, kappa, V domains shown) VH: EVQLVESGGGLVQPGGSLRLSCAASGFTFSDYWMDWVRQAPGKGLEWVGEIRLKSDNYATHYAASVKGRFTISRDDSKNSLYLQMNSLKTEDTAVYYCTRDYYAMEYWGQGTTVTVSS VL: DIVMTQTPLSLSVTPGQPASISCKSSQTIVHSNGKTYLYWYLQKPGQSPQLLIYKVSSRFSGVPDRFSGSGSGTDFTLKISRVEAEDVGVYYCFQASHVPYTFGQGTKLEIKR	6.12

Exercise: Value lookup for pKd; key = humanized anti-BKB2R antibody L2/H2 (antibody, human IgG2, kappa, V domains shown, also called H2/L2) VH: EVQLVESGGGLVQPGGSLRLSCVASGFTFSDYWMSWVRQAPGKGLEWVAEIRLKSDNYATHYAESVKGRFTISRDDAKNSLYLQMNSLRAEDTAVYYCTRDYYAMEYWGQGTLVTVSS VL: DIVMTQSPLSLPVTPGEPASISCRSSQTIVHSNGKTYLEWYLQKPGQSPQLLIYKVSNRFSGVPDRFSGSGSGTEFTLKISRVEAEDVGVYYCFQASHVPYTFGQGTKLEIKR
Key: 7.65
